- tgt: Monoacylglycerol lipase ABHD6 (Mus musculus)
- assayText: serine hydrolase inhibition in mouse brain membranes, late-stage follow-up, selectivity assay for DAGLb inhibitor project, biochemical, gel-based competitive ABPP, fluorescence, set 2 (AID 602323)
- measurementConditions: mouse brain membrane, at 1 µM, active compounds read high
measure: inhibition (%)

INSERT INTO results (compound, tgt, scaleunit, measured) VALUES
  ('O=C(N1CCCCC1Cc1ccccc1)n1cc(-c2cc(F)cc(F)c2)nn1 (centres undefined)', 'Monoacylglycerol lipase ABHD6 (Mus musculus)', '%', 98),
  ('O=C(N1CCCCC1Cc1ccccc1)n1cc(-c2ccc(-c3cccc(CO)c3)cc2)nn1 (centres undefined)', 'Monoacylglycerol lipase ABHD6 (Mus musculus)', '%', 90),
  ('O=C(N1CCCCC1Cc1ccccc1)n1cc(-c2ccc(-c3ccccc3)cc2)nn1 (centres undefined)', 'Monoacylglycerol lipase ABHD6 (Mus musculus)', '%', 95),
  ('O=C(N1CCCCC1Cc1ccccc1)n1cc(-c2ccc(-c3cccc(C(F)(F)F)c3)cc2)nn1 (centres undefined)', 'Monoacylglycerol lipase ABHD6 (Mus musculus)', '%', 95),
  ('O=C(c1ccc(-c2cn(C(=O)N3CCCCC3Cc3ccccc3)nn2)cc1)N1CCCCC1 (centres undefined)', 'Monoacylglycerol lipase ABHD6 (Mus musculus)', '%', 95),
  ('O=C(N1CCCCC1Cc1ccccc1)n1ncc(-c2ccc(OC(F)(F)F)cc2)n1 (centres undefined)', 'Monoacylglycerol lipase ABHD6 (Mus musculus)', '%', 70),
  ('Cc1ccccc1-c1ccc(-c2cn(C(=O)N3CCCCC3Cc3ccccc3)nn2)cc1 (centres undefined)', 'Monoacylglycerol lipase ABHD6 (Mus musculus)', '%', 90),
  ('O=C(N1CCCCC1Cc1ccccc1)n1cc(-c2ccc(-c3ccccc3OC(F)(F)F)cc2)nn1 (centres undefined)', 'Monoacylglycerol lipase ABHD6 (Mus musculus)', '%', 95),
  ('O=C(N1CCCCC1Cc1ccccc1)n1cc(-c2ccc(-c3ccc4c(c3)OCO4)cc2)nn1 (centres undefined)', 'Monoacylglycerol lipase ABHD6 (Mus musculus)', '%', 90);

###

- tgt: Diacylglycerol lipase-beta (Mus musculus) (UniProt Q91WC9)
- Sequence (Q91WC9 whole entry, looked up): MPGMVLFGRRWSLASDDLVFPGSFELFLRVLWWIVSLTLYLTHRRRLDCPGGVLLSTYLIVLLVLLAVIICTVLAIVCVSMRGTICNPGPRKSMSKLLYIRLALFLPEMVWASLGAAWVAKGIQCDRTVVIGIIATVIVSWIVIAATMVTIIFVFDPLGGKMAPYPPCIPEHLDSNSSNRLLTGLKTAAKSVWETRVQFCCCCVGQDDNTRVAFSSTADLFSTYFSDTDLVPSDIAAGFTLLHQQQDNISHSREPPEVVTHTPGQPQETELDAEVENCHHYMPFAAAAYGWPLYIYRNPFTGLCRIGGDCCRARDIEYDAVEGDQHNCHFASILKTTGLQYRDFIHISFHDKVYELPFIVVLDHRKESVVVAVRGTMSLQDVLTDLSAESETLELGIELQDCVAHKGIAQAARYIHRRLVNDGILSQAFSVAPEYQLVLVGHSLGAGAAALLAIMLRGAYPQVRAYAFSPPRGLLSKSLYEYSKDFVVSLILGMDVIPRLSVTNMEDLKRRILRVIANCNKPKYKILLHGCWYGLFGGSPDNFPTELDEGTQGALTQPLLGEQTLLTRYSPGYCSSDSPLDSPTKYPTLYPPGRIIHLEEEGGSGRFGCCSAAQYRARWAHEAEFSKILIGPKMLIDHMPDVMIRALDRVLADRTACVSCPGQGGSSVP
- assayText: serine hydrolase inhibition in mouse brain membranes, late-stage follow-up, selectivity assay for DAGLb inhibitor project, biochemical, gel-based competitive ABPP, fluorescence, set 2 (AID 602323)
- measurementConditions: mouse brain membrane, DAGLb, at 1 µM, active compounds read high
measure: inhibition (%)

INSERT INTO assay_data (compound, measured) VALUES
  ('O=C(N1CCCCC1Cc1ccccc1)n1cc(-c2cccc(-c3ccccc3)c2)nn1 (centres undefined)', 75);

1. O=C(N1CCCCC1Cc1ccccc1)n1cc(-c2ccc(-c3cccc(C(F)(F)F)c3)cc2)nn1 (centres undefined)
2. COc1ccccc1-c1ccc(-c2cn(C(=O)N3CCCCC3Cc3ccccc3)nn2)cc1 (centres undefined)
3. O=C(N1CCCCC1Cc1ccccc1)n1cc(-c2ccc(-c3cccc(CO)c3)cc2)nn1 (centres undefined)
In this exercise, place the 3 compounds in ascending sequence of their recorded inhibition. Form field (ranking): labels in requested order.
3, 1, 2

###

- tgt: Platelet-activating factor acetylhydrolase (Mus musculus)
- assayText: serine hydrolase inhibition in mouse brain membranes, late-stage follow-up, selectivity assay for DAGLb inhibitor project, biochemical, gel-based competitive ABPP, fluorescence, set 2 (AID 602323)
- measurementConditions: mouse brain membrane, PLA2G7, at 1 µM, active compounds read high
measure: inhibition (%)

Field: example entries. Status: answers known.
INSERT INTO measurements (compound, measured) VALUES
  ('CC(C)CN(CCc1ccccc1)C(=O)n1cc(-c2ccc(OC(F)(F)F)cc2)nn1', 95),
  ('O=C(N1CCCCC1Cc1ccccc1)n1cc(-c2ccc(-c3cccc(CO)c3)cc2)nn1 (centres undefined)', 0),
  ('COc1ccccc1-c1ccc(-c2cn(C(=O)N3CCCCC3Cc3ccccc3)nn2)cc1 (centres undefined)', 25),
  ('O=C(N1CCCCC1Cc1ccccc1)n1cc(-c2cccc(-c3ccccc3)c2)nn1 (centres undefined)', 30),
  ('O=C(N(CCc1ccccc1)Cc1ccco1)n1cc(-c2ccc(OC(F)(F)F)cc2)nn1', 95),
  ('O=C(N1CCCCC1Cc1ccccc1)n1ncc(-c2ccc(OC(F)(F)F)cc2)n1 (centres undefined)', 90),
  ('O=C(N1CCCCC1Cc1ccccc1)n1cc(-c2ccc(-c3ccccc3OC(F)(F)F)cc2)nn1 (centres undefined)', 60),
  ('O=C(N1CCCCC1Cc1ccccc1)n1cc(-c2ccc(-c3cccc(C(F)(F)F)c3)cc2)nn1 (centres undefined)', 25),
  ('O=C(N1CCCCC1Cc1ccccc1)n1cc(-c2ccc(OC(F)(F)F)cc2)nn1 (centres undefined)', 90),
  ('O=C(N1CCCCC1Cc1ccccc1)n1cc(-c2ccc(-c3ccc4c(c3)OCO4)cc2)nn1 (centres undefined)', 20);

P. O=C(N1CCCCC1Cc1ccccc1)n1cc(-c2ccc(-c3ccccc3C(F)(F)F)cc2)nn1 (centres undefined)
Q. O=C(N1CCCCC1Cc1ccccc1)n1cc(-c2ccc(Br)cc2)nn1 (centres undefined)
R. O=C(N1CCCCC1Cc1ccccc1)n1ncc(C(O)(c2ccccc2)c2ccccc2)n1 (centres undefined)
Parameters: sort_field (inhibition), sort_dir (desc). Form field (ranking): labels in requested order.
Q, P, R
(Q: 95%, P: 25%, R: 0%)

1. CC(C)(C)OC(=O)NCCCCCN(CCc1ccccc1)C(=O)n1cc(-c2ccc(OC(F)(F)F)cc2)nn1
2. O=C(c1ccc(-c2ccc(-c3cn(C(=O)N4CCCCC4Cc4ccccc4)nn3)cc2)cc1)N1CCCCC1 (centres undefined)
Dear colleague, could you let me know whether 1 or 2 has the lower recorded inhibition? Thanks. Give the label under which the chosen entry appears.
2
(2: 0%, 1: 95%)

A. O=C(N1CCCCC1Cc1ccccc1)n1cc(-c2cc(F)cc(F)c2)nn1 (centres undefined)
B. O=C(N1CCCCC1Cc1ccccc1)n1cc(-c2ccc(-c3ccoc3)cc2)nn1 (centres undefined)
Which record would sort first by descending inhibition, A or B ? Give the label under which the chosen entry appears.
A
(A: 95%, B: 45%)

I. O=C(N1CCCCC1Cc1ccccc1)n1cc(-c2ccc(-c3ccc(OC(F)(F)F)cc3)cc2)nn1 (centres undefined)
II. O=C(N1CCCCC1Cc1ccccc1)n1cc(-c2ccc(-c3ccccc3Cl)cc2)nn1 (centres undefined)
Which record would sort first by descending inhibition, I or II ? Give the label under which the chosen entry appears.
II
(II: 90%, I: 50%)
